B1: MTMR15 (parent)
chain: FSPDFTLRNTLKSTSEDSLVKQEC

Variants of: B1
Method: protein stability index of a GFP-peptide fusion (GPS, HEK-293T) (PSI 1-6); higher = more stable;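 also: lentivirally expressed fusions sorted by FACS into six bins by GFP to DsRed ratio, PSI derived from sequencing read proportions per bin multiplied by bin number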
Reported conditions: c terminus: a fixed tail appended
Measured metric: protein stability index

variant_designation=L11S measured_metric="protein stability index" numeric_result=2.04
variant_designation=K12I measured_metric="protein stability index" numeric_result=2.6
variant_designation=T6G measured_metric="protein stability index" numeric_result=2.63
variant_designation=N9R measured_metric="protein stability index" numeric_result=2.62
variant_designation=S13L measured_metric="protein stability index" numeric_result=1.83
variant_designation=T6P measured_metric="protein stability index" numeric_result=1.92
variant_designation=T14R measured_metric="protein stability index" numeric_result=1.77
variant_designation=L19S measured_metric="protein stability index" numeric_result=1.97
variant_designation=E23N measured_metric="protein stability index" numeric_result=1.58
variant_designation=V20Q measured_metric="protein stability index" numeric_result=2.06
variant_designation=S18T measured_metric="protein stability index" numeric_result=2.21
variant_designation=D4C measured_metric="protein stability index" numeric_result=1.78
variant_designation=Q22R measured_metric="protein stability index" numeric_result=1.72
variant_designation=E16F measured_metric="protein stability index" numeric_result=2.48
variant_designation=F1M measured_metric="protein stability index" numeric_result=4.87
variant_designation=F1Q measured_metric="protein stability index" numeric_result=4.96
variant_designation=V20W measured_metric="protein stability index" numeric_result=2.12
variant_designation=P3S measured_metric="protein stability index" numeric_result=2.67
variant_designation=C24W measured_metric="protein stability index" numeric_result=2.18
variant_designation=E23Y measured_metric="protein stability index" numeric_result=1.84
variant_designation=D17G measured_metric="protein stability index" numeric_result=2.03
variant_designation=L11D measured_metric="protein stability index" numeric_result=2.25
variant_designation=L7D measured_metric="protein stability index" numeric_result=3.03
variant_designation=T14H measured_metric="protein stability index" numeric_result=1.96
variant_designation=F1K measured_metric="protein stability index" numeric_result=5
variant_designation=C24M measured_metric="protein stability index" numeric_result=2.74
variant_designation=D17Q measured_metric="protein stability index" numeric_result=2.37
variant_designation=R8I measured_metric="protein stability index" numeric_result=2.88
variant_designation=L7T measured_metric="protein stability index" numeric_result=2.75
variant_designation=Q22V measured_metric="protein stability index" numeric_result=2
variant_designation=E16A measured_metric="protein stability index" numeric_result=1.67
variant_designation=R8A measured_metric="protein stability index" numeric_result=2.01
variant_designation=T14N measured_metric="protein stability index" numeric_result=2.11
variant_designation=R8S measured_metric="protein stability index" numeric_result=1.9
variant_designation=D4R measured_metric="protein stability index" numeric_result=2.65
variant_designation=S13Y measured_metric="protein stability index" numeric_result=2.35
variant_designation=S18V measured_metric="protein stability index" numeric_result=1.84
variant_designation=F5Y measured_metric="protein stability index" numeric_result=2.61
variant_designation=D17I measured_metric="protein stability index" numeric_result=2.58
variant_designation=F1S measured_metric="protein stability index" numeric_result=4.81
variant_designation=C24L measured_metric="protein stability index" numeric_result=2.03
variant_designation=R8G measured_metric="protein stability index" numeric_result=1.79
variant_designation=S2V measured_metric="protein stability index" numeric_result=2.88
variant_designation=K21Q measured_metric="protein stability index" numeric_result=2.33
variant_designation=R8F measured_metric="protein stability index" numeric_result=1.89
variant_designation=S2C measured_metric="protein stability index" numeric_result=2.19
variant_designation=L7N measured_metric="protein stability index" numeric_result=1.91
variant_designation=D17M measured_metric="protein stability index" numeric_result=2.07
variant_designation=D17E measured_metric="protein stability index" numeric_result=2.12
variant_designation=E16C measured_metric="protein stability index" numeric_result=1.98
variant_designation=K21N measured_metric="protein stability index" numeric_result=2.94
variant_designation=R8V measured_metric="protein stability index" numeric_result=2.14
variant_designation=E23L measured_metric="protein stability index" numeric_result=1.77
variant_designation=L11H measured_metric="protein stability index" numeric_result=1.76
variant_designation=E16G measured_metric="protein stability index" numeric_result=1.93
variant_designation=S2Q measured_metric="protein stability index" numeric_result=3.32
variant_designation=S13Q measured_metric="protein stability index" numeric_result=2.31
variant_designation=L19Q measured_metric="protein stability index" numeric_result=3.03
variant_designation=K21F measured_metric="protein stability index" numeric_result=2.06
variant_designation=C24H measured_metric="protein stability index" numeric_result=1.85
variant_designation=F5E measured_metric="protein stability index" numeric_result=4.83
variant_designation=S15T measured_metric="protein stability index" numeric_result=1.85
variant_designation=S13A measured_metric="protein stability index" numeric_result=1.9
variant_designation=T14P measured_metric="protein stability index" numeric_result=1.69
variant_designation=R8T measured_metric="protein stability index" numeric_result=1.73
variant_designation=D17F measured_metric="protein stability index" numeric_result=2.8
variant_designation=Q22H measured_metric="protein stability index" numeric_result=1.91
variant_designation=P3G measured_metric="protein stability index" numeric_result=2.27
variant_designation=F1T measured_metric="protein stability index" numeric_result=5.28
variant_designation=T10R measured_metric="protein stability index" numeric_result=2.15
variant_designation=F5K measured_metric="protein stability index" numeric_result=3.79
variant_designation=E23I measured_metric="protein stability index" numeric_result=1.72
variant_designation=T14Y measured_metric="protein stability index" numeric_result=1.72
variant_designation=P3D measured_metric="protein stability index" numeric_result=3.91
variant_designation=Q22K measured_metric="protein stability index" numeric_result=1.62
variant_designation=L11I measured_metric="protein stability index" numeric_result=2.83
variant_designation=T14A measured_metric="protein stability index" numeric_result=1.54
variant_designation=E23V measured_metric="protein stability index" numeric_result=1.94
variant_designation=C24N measured_metric="protein stability index" numeric_result=2.16
variant_designation=D4N measured_metric="protein stability index" numeric_result=2.23
variant_designation=T14M measured_metric="protein stability index" numeric_result=2.05
variant_designation=K12S measured_metric="protein stability index" numeric_result=2.04
variant_designation=V20T measured_metric="protein stability index" numeric_result=2.01
variant_designation=R8W measured_metric="protein stability index" numeric_result=2.17
variant_designation=T6F measured_metric="protein stability index" numeric_result=1.84
variant_designation=K21V measured_metric="protein stability index" numeric_result=2
variant_designation=T6L measured_metric="protein stability index" numeric_result=2.8
variant_designation=Q22N measured_metric="protein stability index" numeric_result=2.02
variant_designation=T14L measured_metric="protein stability index" numeric_result=2
variant_designation=E23D measured_metric="protein stability index" numeric_result=1.52
variant_designation=E23R measured_metric="protein stability index" numeric_result=2.42
